Source listed as ChEMBL document CHEMBL3988442.

- Tested on: Wolbachia pipientis
- procedureSummary: Anti-Wolbachia Cell-Based Screen
- Format: functional
- Parameters: scale not given: in the data most compounds retested in dose-response had high values
- experimentalContext: 5 µM
Hit rate of the full screen: of about 48,000 compounds, about 13,000 (27%) showed an effect of 50% or more. This is one part of the list.
Kindly supply the reported Percent Effect values for the records listed here.
Provide only the numeric value, understood in %.

Q) I'd like to know its Percent Effect. The compound in question is Cc1cc(=O)[nH]c(-c2cccc(CN3CCCN4CCCC4C3)c2)n1 (stereo not drawn)
A) -8.166

Q) # iterate: `COCCOc1ccc(CNc2cnc3ccccc3n2)cn1`
A) 132.7

Q) # iterate: `COCCOc1ccc(CNc2nc3ccccc3o2)cn1`
A) 106.2

Q) # iterate: CN1CCN(S(=O)(=O)N2CCCCC2CCc2ccc(O)cc2)CC1 (stereo not drawn)
A) -0.6049

Q) # iterate: Cc1cnn(CC2CCCN2CC(=O)NCc2ccccn2)c1 (stereo not drawn)
A) 118.9

Q) # iterate: `CN(CCO)Cc1nnc(C2CCN(C(=O)C3CCOCC3)CC2)n1C`
A) -7.962

Q) # iterate: Cc1n[nH]c(C2CN(Cc3ncc(C(C)C)o3)CCO2)n1 (stereo not drawn)
A) 3.962

Q) # iterate: `Cc1cc(C)c(CNC(=O)NCCOc2ccc3c(c2)CCC3)c(=O)[nH]1`
A) -6.999

Q) # iterate: `CCc1nc(CN2CCCN(c3ncnc4ccsc34)CC2)no1`
A) -84.77

Q) # iterate: `Cc1csc(N2CCCN(Cc3noc(C)n3)CC2)n1`
A) 0.2085

Q) # iterate: `c1csc(N2CCCN(Cc3noc(C4CC4)n3)CC2)n1`
A) 107.3

Q) # iterate: O=C(C1CCCO1)N1CCC(Cn2cc(C3CCCC3)nn2)CC1 (stereo not drawn)
A) -6.289

Q) # iterate: O=C(C1CCCO1)N1CCC(c2nc(-c3ccccc3)n[nH]2)CC1 (stereo not drawn)
A) -16.11

Q) # iterate: Cc1cnn(CC2CCCN2CC(=O)Nc2nncs2)c1 (stereo not drawn)
A) 1.96

Q) # iterate: CCCS(=O)(=O)N1CCCC(c2nc(-c3ccccc3)c[nH]2)C1 (stereo not drawn)
A) 7.84

Q) # iterate: O=C(CN1CCCCC1Cn1cncn1)NCc1ccccn1 (stereo not drawn)
A) -8.236

Q) # iterate: `COCCN1CCC(CNc2nc3ccccc3o2)CC1`
A) 8.013

Q) # iterate: Cc1cccc2[nH]c(C3CCCN(Cc4ccc(CO)o4)C3)nc12 (stereo not drawn)
A) -5.911

Q) # iterate: Cc1cccc2[nH]c(C3CCCN(Cc4ccccc4C(=O)O)C3)nc12 (stereo not drawn)
A) 94.13

Q) # iterate: CCCC1(CO)CCCN(Cc2nccs2)C1 (stereo not drawn)
A) -16.5

Q) # iterate: Cc1cnn(CC2CCCN2CC(=O)Nc2cc(C)no2)c1 (stereo not drawn)
A) 114.2

Q) # iterate: Cc1c[nH]c(C2CCCN(Cc3ccccc3C(=O)O)C2)n1.O=CO (stereo not drawn)
A) 102.4

Q) # iterate: Cc1ccc(CN2CCN(c3cc(NCCO)ncn3)CC2CCO)o1 (stereo not drawn)
A) -3.553

Q) # iterate: `Cc1nn(C)cc1CN1C[C@@H]2CC[C@H](C1)N(Cc1c(C)noc1C)C2=O`
A) -0.3171

Q) # iterate: `CCCN(C(=O)CS(=O)(=O)c1ccccc1)c1cccc(C)c1`
A) -28.2

Q) # iterate: `COCCN1CCC(CNc2cnc3ccccc3n2)CC1`
A) -17.24

Q) # iterate: `c1csc(N2CCN(Cc3nnnn3C3CC3)CC2)n1`
A) -36.32

Q) # iterate: `COCCOc1ccc(CNc2nc3ccccc3nc2N)cn1`
A) 162.2

Q) # iterate: `NC(=O)Nc1cccc(F)c1C(=O)NC1CCCC1`
A) 2.904

Q) # iterate: Cc1cnn(CC2CCCCN2CC(=O)Nc2c(C)n[nH]c2C)c1 (stereo not drawn)
A) 8.734

Q) # iterate: `Cc1nc(CN2CCCN(c3nccs3)CC2)no1`
A) 78.71

Q) # iterate: `Cc1nn(CCO)cc1CN1CCC(N2CCC(O)CC2)CC1`
A) -2.078

Q) # iterate: `CC(=O)N[C@@H]1CN(Cc2ccccc2C(=O)O)C[C@H]1C(C)C`
A) -2.27

Q) # iterate: `CCc1nc(CN2CCCN(c3nccs3)CC2)no1`
A) 1.816

Q) # iterate: `c1csc(N2CCCN(Cc3nc(C4CC4)no3)CC2)n1`
A) -5.415

Q) # iterate: `N[C@@H]1c2ccccc2C2(CCN(C(=O)c3ccc(=O)[nH]c3)CC2)[C@H]1O`
A) 2.656

Q) # iterate: `CCc1ccc(CNC(=O)CCNc2ncccn2)s1`
A) 5.252

Q) # iterate: Cc1c[nH]c(C2CN(Cc3ccccc3C(=O)O)CCO2)n1 (stereo not drawn)
A) 102.8

Q) # iterate: CS(=O)(=O)c1cc(Cl)cnc1C1CCN(C(=O)C2CCCO2)CC1 (stereo not drawn)
A) 120.4

Q) # iterate: `CC(C)(C)c1ncc(CNc2ccn(CCc3ccncc3)n2)s1`
A) 6.667

Q) # iterate: CCOC(=O)c1n[nH]cc1CN1CCOC(Cc2ccccc2)C1 (stereo not drawn)
A) 4.032

Q) # iterate: Cc1c[nH]c(C2CCCN(Cc3cccc(C(=O)O)c3)C2)n1 (stereo not drawn)
A) 79.24

Q) # iterate: Cc1cnn(CC2CCCN2CC(=O)Nc2nccs2)c1 (stereo not drawn)
A) 91.79

Q) # iterate: `COCc1noc(C2(c3ccc(OC)cc3)CCOCC2)n1`
A) -14.42

Q) # iterate: `CSc1ncccc1C(=O)N1CCC(c2nc3c(C)cccc3[nH]2)CC1`
A) -2.536

Q) # iterate: `CCN1C[C@H]2CCN(c3ncccn3)CC[C@H]2S1(=O)=O`
A) 3.931

Q) # iterate: Cc1nnc2n1CC(CNc1ncnc3ccccc13)CC2 (stereo not drawn)
A) -0.4612

Q) # iterate: `Cc1nc(CN2C[C@@H](CN3CCOCC3)[C@@H](CO)C2)c2ccccn12`
A) 6.539

* * *

Kindly supply the reported Percent Effect values for the records listed here.
- Test system: Wolbachia pipientis
- procedureSummary: Anti-Wolbachia Cell-Based Screen
- Format: functional
- Parameters: scale not given: in the data most compounds retested in dose-response had high values
- experimentalContext: 5 µM
Among all 48,000 compounds or so, about 13,000 (27%) showed an effect of 50% or more. This is one part of the list.
Provide only the numeric value, understood in %.

Q) I'd like to know its Percent Effect. The compound in question is COc1ccc(-c2nc(CSC3CCCCNC3=O)co2)cc1 (stereo unspecified)
A) -25.49

Q) # iterate: CCOC1CCCN(C(=O)c2sccc2-n2cnnn2)C1 (stereo unspecified)
A) -3.669

Q) # iterate: `CC(=O)N1CCC(NC(=O)c2cc(Cl)ccc2-n2cnnn2)CC1`
A) 22.58

Q) # iterate: `CCOC(=O)C1CCN(C(=O)Cn2ccc3cc(Br)ccc32)CC1`
A) 16.73

Q) # iterate: CCC(C)[C@H](NC(=O)c1cc(Br)ccc1-n1cnnn1)C(=O)OC (stereo partly specified)
A) 6.622

Q) # iterate: CC(C)C1CCCN1C(=O)c1ccc(-n2ncc(C#N)c2N)cc1 (stereo unspecified)
A) -2.457

Q) # iterate: `CC(C)CCN(C(=O)Nc1cccc(C(=O)N(C)C)c1)C1CC1`
A) -4.492

Q) # iterate: `CCOC(=O)N1CCC(C(=O)c2cc(F)ccc2F)CC1`
A) -8.485

Q) # iterate: `CCOC(=O)CN1CCC(C(=O)c2cc(F)ccc2F)CC1`
A) -15.3

Q) # iterate: `CCOC(=O)C1CCN(C(=O)c2cc(F)ccc2-n2cnnn2)CC1`
A) 122.3

Q) # iterate: `N#Cc1cnn(-c2ccc(C(=O)N(C3CCCCC3)C3CC3)cc2)c1N`
A) 50.38

* * *

Kindly supply the reported Percent Effect values for the records listed here.
- Tested on: Wolbachia pipientis
- procedureSummary: Anti-Wolbachia Cell-Based Screen
- Type: functional
- Set-up: scale not given: in the data most compounds retested in dose-response had high values
- experimentalContext: 5 µM
Out of some 48,000 compounds screened, about 13,000 (27%) showed an effect of 50% or more. The list shows a part of the results.
Provide only the numeric value, understood in %.

Q) I'd like to know its Percent Effect. The molecule in question is CSCC(=O)N1CCOC(c2nc(C(C)(C)C)n[nH]2)C1 (stereo unspecified)
A) 103.9

Q) # iterate: CCC(NC(=O)NCc1ccoc1C)c1c(C)nn(C)c1C (stereo unspecified)
A) 3.251

Q) # iterate: Cc1n[nH]c(C2CN(C(=O)c3cc(C4CC4)[nH]n3)CCO2)n1 (stereo unspecified)
A) 6.266

Q) # iterate: CC(C)c1n[nH]c(C2CN(C(=O)CCCn3cccn3)CCO2)n1 (stereo unspecified)
A) -13

Q) # iterate: Cc1n[nH]c(C2CN(C(=O)c3cnc[nH]3)CCO2)n1 (stereo unspecified)
A) -6.3

Q) # iterate: `O=C1CCCN1Cc1ncn2c1CN(C(=O)C1CC=CC1)CCC2`
A) 99.96

Q) # iterate: Cc1nc(CN2CCOC(c3nc(C(C)C)n[nH]3)C2)oc1C (stereo unspecified)
A) -6.661

Q) # iterate: `O=C(Nc1ccc(CCN2CCC(O)CC2)cc1)Nc1cccnc1`
A) -10.88

Q) # iterate: CC(C)(C)c1n[nH]c(C2CN(C(=O)c3ccsc3)CCO2)n1 (stereo unspecified)
A) -3.296

Q) # iterate: CC(C)(C)c1n[nH]c(C2CN(C(=O)c3cnc[nH]3)CCO2)n1 (stereo unspecified)
A) 97.58

Q) # iterate: c1cc(-c2nnn3c2COC(CNCC2CCOCC2)C3)ccn1 (stereo unspecified)
A) -54.53
